# reported Bliss excess; entries follow
test system: LoVo (Colorectal Carcinoma); test: Bliss excess, mean over the matrix (fraction); higher = more synergy
Please give only the number in your answer, with no unit.

Task: For LoVo (Colorectal Carcinoma), provide Bliss excess of CN(C)CCCOc1ccc(-c2ccc3ncc4c(c3c2)n(C2CCOCC2)c(=O)n4C)cn1 [AZD0156] + O=C(c1cc(Cc2n[nH]c(=O)c3ccccc23)ccc1F)N1CCN(C(=O)C2CC2)CC1 [Olaparib] (first compound max 3 µM, partner max 3 µM) please.
Result: 0.0346

Task: For LoVo (Colorectal Carcinoma), provide Bliss excess of CC1(C)CCC(CN2CCN(c3ccc(C(=O)NS(=O)(=O)c4ccc(NCC5CCOCC5)c([N+](=O)[O-])c4)c(Oc4cnc5[nH]ccc5c4)c3)CC2)=C(c2ccc(Cl)cc2)C1 [Venetoclax] + C=CCn1c(=O)c2cnc(Nc3ccc(N4CCN(C)CC4)cc3)nc2n1-c1cccc(C(C)(C)O)n1 [AZD1775] (first compound max 1 µM, partner max 1 µM) please.
Result: -0.0625

Task: For LoVo (Colorectal Carcinoma), provide Bliss excess of CCc1c2c(nc3ccc(O)cc13)-c1cc3c(c(=O)n1C2)COC(=O)[C@]3(O)CC [SN-38] + O=C(c1cc(Cc2n[nH]c(=O)c3ccccc23)ccc1F)N1CCN(C(=O)C2CC2)CC1 [Olaparib] (first compound max 0.3 µM, 7x7, partner max 10 µM) please.
Result: 0.0556

Task: For LoVo (Colorectal Carcinoma), provide Bliss excess of CN(C)CCCOc1ccc(-c2ccc3ncc4c(c3c2)n(C2CCOCC2)c(=O)n4C)cn1 [AZD0156] + CCN(CCO)CCCOc1ccc2c(Nc3cc(CC(=O)Nc4cccc(F)c4)[nH]n3)ncnc2c1 [AZD2811] (first compound max 1 µM, 7x7, partner max 1 µM) please.
Result: 0.0047

* * *

tested on: KARPAS-231 (B-Cell Non-Hodgkin's Lymphoma); test: Bliss excess, mean over the matrix (fraction); higher = more synergy
measurement_label: Bliss excess
Please give only the number in your answer, with no unit.

Task: Quick check: Bliss excess of CN(CCO)CC[C@H](CSc1ccccc1)Nc1ccc(S(=O)(=O)NC(=O)c2ccc(N3CCC([C@@H](O)c4ccccc4-c4ccc(Cl)cc4)CC3)cc2)cc1S(=O)(=O)C(F)(F)F [AZD4320] + C[C@@H]1COCCN1C2=NC(=NC(=C2)C3(CC3)[S@](=N)(=O)C)C4=C5C=CNC5=NC=C4 [AZD6738] (first compound max 1 µM, 7x7, partner max 10 µM) ?
Result: -0.0331

* * *

# reported combination Emax; entries follow
system: UMC-11 (Other Solid Carcinomas); test: combination Emax (second highest fraction inhibited in the dose matrix, 72 h); higher = more inhibition; extreme values may be limits of the assay
Please give only the number in your answer, with no unit.

Task: Quick check: combination Emax of Cc1c2c(nn1C)CSCc1cc(n(C)n1)CSc1cc(c3ccccc3c1)OCCCc1c(C(=O)O)n(C)c3c-2c(Cl)ccc13 [AZD5991] + CCN(CCO)CCCOc1ccc2c(Nc3cc(CC(=O)Nc4cccc(F)c4)[nH]n3)ncnc2c1 [AZD2811] (first compound max 1 µM, 7x7, partner max 1 µM) ?
Result: 0.949

Task: Quick check: combination Emax of Cc1c2c(nn1C)CSCc1cc(n(C)n1)CSc1cc(c3ccccc3c1)OCCCc1c(C(=O)O)n(C)c3c-2c(Cl)ccc13 [AZD5991] + CN(C)CCCOc1ccc(-c2ccc3ncc4c(c3c2)n(C2CCOCC2)c(=O)n4C)cn1 [AZD0156] (first compound max 1 µM, 7x7, partner max 1 µM) ?
Result: 0.486

Task: Quick check: combination Emax of Cc1c2c(nn1C)CSCc1cc(n(C)n1)CSc1cc(c3ccccc3c1)OCCCc1c(C(=O)O)n(C)c3c-2c(Cl)ccc13 [AZD5991] + Cn1cnc2c(F)c(Nc3ccc(Br)cc3Cl)c(C(=O)NOCCO)cc21 [Selumetinib] (first compound max 1 µM, 7x7, partner max 3 µM) ?
Result: 0.348

Task: Quick check: combination Emax of CCc1c2c(nc3ccc(O)cc13)-c1cc3c(c(=O)n1C2)COC(=O)[C@]3(O)CC [SN-38] + CN(C)CCCOc1ccc(-c2ccc3ncc4c(c3c2)n(C2CCOCC2)c(=O)n4C)cn1 [AZD0156] (first compound max 0.3 µM, 7x7, partner max 1 µM) ?
Result: 0.303

* * *

test system: 8305C (Thyroid Gland Carcinoma); experiment: combination Emax (second highest fraction inhibited in the dose matrix, 72 h); higher = more inhibition; extreme values may be limits of the assay
# reported combination Emax; entries follow

Past entries and their recorded results:
CN(CCO)CC[C@H](CSc1ccccc1)Nc1ccc(S(=O)(=O)NC(=O)c2ccc(N3CCC([C@@H](O)c4ccccc4-c4ccc(Cl)cc4)CC3)cc2)cc1S(=O)(=O)C(F)(F)F [AZD4320] + Cc1cc2ncnn2cc1Nc1ncc2c(n1)n(C1CCOCC1)c(=O)n2C [AZD7648] (first compound max 1 µM, 7x7, partner max 10 µM)	0.699
CC1(C)CCC(CN2CCN(c3ccc(C(=O)NS(=O)(=O)c4ccc(NCC5CCOCC5)c([N+](=O)[O-])c4)c(Oc4cnc5[nH]ccc5c4)c3)CC2)=C(c2ccc(Cl)cc2)C1 [Venetoclax] + C=CCn1c(=O)c2cnc(Nc3ccc(N4CCN(C)CC4)cc3)nc2n1-c1cccc(C(C)(C)O)n1 [AZD1775] (first compound max 1 µM, partner max 1 µM)	0.639

API: the following record is the query input.
Task: Quick check: combination Emax of C[C@@H](Oc1cc(-c2cnn(C3CCNCC3)c2)cnc1N)c1c(Cl)ccc(F)c1Cl [Crizotinib] + CC1=C(C(=CC=C1)Cl)NC(=O)C2=CN=C(S2)NC3=CC(=NC(=N3)C)N4CCN(CC4)CCO [Dasatinib] (first compound max 10 µM, 7x7, partner max 2 µM) ?
Result: 0.843

* * *

test system: SU-DHL-6 (B-Cell Non-Hodgkin's Lymphoma); assay: Bliss excess, mean over the matrix (fraction); higher = more synergy
# reported Bliss excess; entries follow
Please give only the number in your answer, with no unit.

COc1cccc(OCCCN)c1-c1cc(Nc2cnc(C#N)cn2)n[nH]1 [Prexasertib] + C[C@@H]1COCCN1C2=NC(=NC(=C2)C3(CC3)[S@](=N)(=O)C)C4=C5C=CNC5=NC=C4 [AZD6738] (first compound max 1 µM, 7x7, partner max 10 µM)	-0.0158

Task: Quick check: Bliss excess of N#Cc1cnc(Nc2cc(NC[C@H]3CNCCO3)c(C(F)(F)F)cn2)cn1 [SRA737] + CCc1c2c(nc3ccc(O)cc13)-c1cc3c(c(=O)n1C2)COC(=O)[C@]3(O)CC [SN-38] (first compound max 10 µM, 7x7, partner max 0.3 µM) ?
Result: 0.0295

* * *

# reported Bliss excess; entries follow
system: NCI-H2795 (Mesothelioma); experiment: Bliss excess, mean over the matrix (fraction); higher = more synergy
Please give only the number in your answer, with no unit.

CC1(C)CCC(CN2CCN(c3ccc(C(=O)NS(=O)(=O)c4ccc(NCC5CCOCC5)c([N+](=O)[O-])c4)c(Oc4cnc5[nH]ccc5c4)c3)CC2)=C(c2ccc(Cl)cc2)C1 [Venetoclax] + C[C@@H]1COCCN1C2=NC(=NC(=C2)C3(CC3)[S@](=N)(=O)C)C4=C5C=CNC5=NC=C4 [AZD6738] (first compound max 1 µM, 7x7, partner max 10 µM)	-0.0578
CC(=O)c1c(C)c2cnc(Nc3ccc(N4CCNCC4)cn3)nc2n(C2CCCC2)c1=O [Palbociclib] + CC1(C)CCC(CN2CCN(c3ccc(C(=O)NS(=O)(=O)c4ccc(NCC5CCOCC5)c([N+](=O)[O-])c4)c(Oc4cnc5[nH]ccc5c4)c3)CC2)=C(c2ccc(Cl)cc2)C1 [Venetoclax] (first compound max 10 µM, 7x7, partner max 1 µM)	-0.0365
CC(=O)c1c(C)c2cnc(Nc3ccc(N4CCNCC4)cn3)nc2n(C2CCCC2)c1=O [Palbociclib] + Cn1cnc2c(F)c(Nc3ccc(Br)cc3Cl)c(C(=O)NOCCO)cc21 [Selumetinib] (first compound max 10 µM, 7x7, partner max 10 µM)	-0.0173

Task: Quick check: Bliss excess of CCN(CCO)CCCOc1ccc2c(Nc3cc(CC(=O)Nc4cccc(F)c4)[nH]n3)ncnc2c1 [AZD2811] + C[C@@H]1COCCN1C2=NC(=NC(=C2)C3(CC3)[S@](=N)(=O)C)C4=C5C=CNC5=NC=C4 [AZD6738] (first compound max 1 µM, 7x7, partner max 10 µM) ?
Result: -0.0517

* * *

system: HMV-II (Melanoma); experiment: combination Emax (second highest fraction inhibited in the dose matrix, 72 h); higher = more inhibition; extreme values may be limits of the assay
# reported combination Emax; entries follow
Please give only the number in your answer, with no unit.

Past entries and their recorded results:
COc1cccc2c1C(=O)c1c(O)c3c(c(O)c1C2=O)C[C@@](O)(C(=O)CO)C[C@@H]3O[C@H]1C[C@H](N)[C@H](O)[C@H](C)O1 [Doxorubicin] + Cc1cc2ncnn2cc1Nc1ncc2c(n1)n(C1CCOCC1)c(=O)n2C [AZD7648] (first compound max 1 µM, 7x7, partner max 10 µM)	0.907
CC1(C)CCC(CN2CCN(c3ccc(C(=O)NS(=O)(=O)c4ccc(NCC5CCOCC5)c([N+](=O)[O-])c4)c(Oc4cnc5[nH]ccc5c4)c3)CC2)=C(c2ccc(Cl)cc2)C1 [Venetoclax] + C[C@@H]1COCCN1C2=NC(=NC(=C2)C3(CC3)[S@](=N)(=O)C)C4=C5C=CNC5=NC=C4 [AZD6738] (first compound max 1 µM, 7x7, partner max 10 µM)	0.464
CS(=O)(=O)CCNCc1ccc(-c2ccc3ncnc(Nc4ccc(OCc5cccc(F)c5)c(Cl)c4)c3c2)o1 [Lapatinib] + NC1(c2ccc(-c3nc4ccn5c(=O)[nH]nc5c4cc3-c3ccccc3)cc2)CCC1 [MK-2206] (first compound max 10 µM, 7x7, partner max 10 µM)	0.904

Task: Quick check: combination Emax of Cc1c2c(nn1C)CSCc1cc(n(C)n1)CSc1cc(c3ccccc3c1)OCCCc1c(C(=O)O)n(C)c3c-2c(Cl)ccc13 [AZD5991] + C=CCn1c(=O)c2cnc(Nc3ccc(N4CCN(C)CC4)cc3)nc2n1-c1cccc(C(C)(C)O)n1 [AZD1775] (first compound max 1 µM, partner max 1 µM) ?
Result: 0.487

Task: Quick check: combination Emax of CN(CCO)CC[C@H](CSc1ccccc1)Nc1ccc(S(=O)(=O)NC(=O)c2ccc(N3CCC([C@@H](O)c4ccccc4-c4ccc(Cl)cc4)CC3)cc2)cc1S(=O)(=O)C(F)(F)F [AZD4320] + C1CN(CCC1(C(=O)N[C@@H](CCO)C2=CC=C(C=C2)Cl)N)C3=NC=NC4=C3C=CN4 [Capivasertib] (first compound max 1 µM, 7x7, partner max 3 µM) ?
Result: 0.169

Task: Quick check: combination Emax of CCc1c2c(nc3ccc(O)cc13)-c1cc3c(c(=O)n1C2)COC(=O)[C@]3(O)CC [SN-38] + O=C(c1cc(Cc2n[nH]c(=O)c3ccccc23)ccc1F)N1CCN(C(=O)C2CC2)CC1 [Olaparib] (first compound max 0.3 µM, 7x7, partner max 10 µM) ?
Result: 0.641

Task: Quick check: combination Emax of Cc1c2c(nn1C)CSCc1cc(n(C)n1)CSc1cc(c3ccccc3c1)OCCCc1c(C(=O)O)n(C)c3c-2c(Cl)ccc13 [AZD5991] + C[C@@H](Nc1cc(F)cc(F)c1)c1cc(C(=O)N(C)C)cc2c(=O)cc(N3CCOCC3)oc12 [AZD8186] (first compound max 1 µM, 7x7, partner max 3 µM) ?
Result: 0.192

Provenance of the data: the supplement of paper PMC11061612
